Study system: PI3Kα (p110α/p85α) (Homo sapiens, UniProt P42336)
Construct: Full-length N-terminal; FLAG (N); host or cells: SF9 cells (baculovirus)
Sequence (P42336 whole entry): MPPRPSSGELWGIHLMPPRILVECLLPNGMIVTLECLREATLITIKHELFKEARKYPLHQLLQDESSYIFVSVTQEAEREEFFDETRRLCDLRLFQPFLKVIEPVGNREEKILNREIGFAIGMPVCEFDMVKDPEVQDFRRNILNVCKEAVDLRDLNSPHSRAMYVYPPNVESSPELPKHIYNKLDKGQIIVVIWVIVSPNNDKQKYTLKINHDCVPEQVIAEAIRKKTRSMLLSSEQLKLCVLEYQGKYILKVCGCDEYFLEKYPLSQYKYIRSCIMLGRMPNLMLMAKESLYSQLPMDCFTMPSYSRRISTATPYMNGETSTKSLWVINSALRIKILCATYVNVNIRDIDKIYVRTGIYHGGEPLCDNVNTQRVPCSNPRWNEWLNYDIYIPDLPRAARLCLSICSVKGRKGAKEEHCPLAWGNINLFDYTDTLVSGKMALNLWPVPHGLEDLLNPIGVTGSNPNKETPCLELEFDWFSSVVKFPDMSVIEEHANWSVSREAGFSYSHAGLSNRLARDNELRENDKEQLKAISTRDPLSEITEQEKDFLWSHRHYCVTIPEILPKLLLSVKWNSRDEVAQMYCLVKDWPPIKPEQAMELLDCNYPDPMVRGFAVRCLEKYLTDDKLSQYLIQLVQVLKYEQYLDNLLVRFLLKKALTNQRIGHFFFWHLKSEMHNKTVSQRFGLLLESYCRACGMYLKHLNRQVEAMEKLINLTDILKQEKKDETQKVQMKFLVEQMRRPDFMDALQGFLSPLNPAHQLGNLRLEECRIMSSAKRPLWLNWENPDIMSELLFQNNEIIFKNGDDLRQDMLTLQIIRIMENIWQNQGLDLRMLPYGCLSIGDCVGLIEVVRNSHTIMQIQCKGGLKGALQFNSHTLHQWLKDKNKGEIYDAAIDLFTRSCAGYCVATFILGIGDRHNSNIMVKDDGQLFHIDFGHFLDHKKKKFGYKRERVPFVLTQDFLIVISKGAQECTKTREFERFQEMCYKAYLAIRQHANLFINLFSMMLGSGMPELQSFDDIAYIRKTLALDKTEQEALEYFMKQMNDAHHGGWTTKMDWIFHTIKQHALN
Sequence (P27986 whole entry, further chain): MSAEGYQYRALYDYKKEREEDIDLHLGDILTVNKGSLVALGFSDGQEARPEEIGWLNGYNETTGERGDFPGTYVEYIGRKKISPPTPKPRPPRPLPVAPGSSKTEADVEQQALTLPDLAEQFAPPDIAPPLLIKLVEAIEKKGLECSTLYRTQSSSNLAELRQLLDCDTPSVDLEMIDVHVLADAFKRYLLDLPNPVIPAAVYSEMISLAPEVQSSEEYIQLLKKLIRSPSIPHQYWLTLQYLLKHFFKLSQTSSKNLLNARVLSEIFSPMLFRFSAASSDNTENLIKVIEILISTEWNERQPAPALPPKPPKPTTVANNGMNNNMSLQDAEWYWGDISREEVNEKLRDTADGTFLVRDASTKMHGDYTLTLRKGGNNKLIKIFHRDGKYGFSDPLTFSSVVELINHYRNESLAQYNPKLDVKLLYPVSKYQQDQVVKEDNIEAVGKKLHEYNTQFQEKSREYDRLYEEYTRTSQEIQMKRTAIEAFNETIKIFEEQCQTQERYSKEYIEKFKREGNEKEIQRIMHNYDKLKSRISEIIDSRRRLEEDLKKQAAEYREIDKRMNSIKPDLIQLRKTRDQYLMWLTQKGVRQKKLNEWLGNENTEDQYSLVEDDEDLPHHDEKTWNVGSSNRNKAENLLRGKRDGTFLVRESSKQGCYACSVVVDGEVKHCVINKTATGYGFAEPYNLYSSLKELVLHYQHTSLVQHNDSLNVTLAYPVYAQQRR
Type: biochemical
Counter-ions that a name gives are not always drawn.
Experimental readout: IC50
Please answer using the number first and the unit second.

Observed IC50, PI3Kα (p110α/p85α) (Homo sapiens, UniProt P42336), O=C(Nc1nc(N2CCOCC2)c2oc3ncccc3c2n1)Oc1ccccc1 [Example 22, hydrochloride] : 802 nM

###

Study system: PI3Kβ (p110β/p85α) (Homo sapiens, UniProt P42338)
Construct: Full-length N-terminal GST-; GST (N); host or cells: SF9 cells (baculovirus)
Sequence (P42338 whole entry): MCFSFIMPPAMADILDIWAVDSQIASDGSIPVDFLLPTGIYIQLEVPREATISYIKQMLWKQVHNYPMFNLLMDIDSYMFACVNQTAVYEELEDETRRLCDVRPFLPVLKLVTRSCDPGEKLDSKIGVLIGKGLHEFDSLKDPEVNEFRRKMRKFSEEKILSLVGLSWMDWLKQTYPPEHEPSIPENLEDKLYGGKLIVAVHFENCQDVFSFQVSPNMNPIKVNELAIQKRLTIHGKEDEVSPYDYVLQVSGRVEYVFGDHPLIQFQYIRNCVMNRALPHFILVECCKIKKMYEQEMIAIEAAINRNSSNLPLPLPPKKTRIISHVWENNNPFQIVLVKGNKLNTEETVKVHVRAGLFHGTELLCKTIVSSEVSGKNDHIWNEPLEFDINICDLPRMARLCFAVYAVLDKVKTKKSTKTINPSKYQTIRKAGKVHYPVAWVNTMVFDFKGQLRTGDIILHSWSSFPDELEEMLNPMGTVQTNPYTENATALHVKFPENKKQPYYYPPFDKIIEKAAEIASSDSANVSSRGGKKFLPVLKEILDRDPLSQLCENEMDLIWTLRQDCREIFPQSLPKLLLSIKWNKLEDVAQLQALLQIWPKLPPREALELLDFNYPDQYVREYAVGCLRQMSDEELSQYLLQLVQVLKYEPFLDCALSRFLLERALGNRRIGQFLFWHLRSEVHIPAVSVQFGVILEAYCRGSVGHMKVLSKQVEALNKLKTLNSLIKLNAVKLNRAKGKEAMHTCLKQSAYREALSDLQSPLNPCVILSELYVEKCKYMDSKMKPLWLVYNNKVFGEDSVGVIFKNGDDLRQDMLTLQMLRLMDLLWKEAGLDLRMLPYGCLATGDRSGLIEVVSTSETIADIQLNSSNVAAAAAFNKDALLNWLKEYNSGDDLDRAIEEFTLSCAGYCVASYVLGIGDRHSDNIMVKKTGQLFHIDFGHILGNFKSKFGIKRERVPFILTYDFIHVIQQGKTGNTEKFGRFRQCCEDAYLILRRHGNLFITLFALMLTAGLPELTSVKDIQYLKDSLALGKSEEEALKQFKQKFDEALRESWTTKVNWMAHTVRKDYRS
Sequence (P27986 whole entry, further chain): as the sequence (P27986 whole entry, further chain) above
Format: biochemical
Reported conditions: 1 nM enzyme, ATP 60 μM, 1 μM PIP2, 3 h room temperature; read-out: PI3Kβ IC50
pIC50: −log10 of the molar value. Where a name gives a salt, the structure may show the parent alone.
Label class 0 if pIC50 falls below 6; label class 1 in every other case.

                                   compound    class
0  c1ccc(-c2cc(Nc3nc(N4CCOCC4)c4oc5ncccc5c4n3)[nH]n2)cc1  class 0
1  Cc1cc(N(C)c2nc(N3CCOCC3)c3oc4ncccc4c3n2)nn1C  class 0
2  c1cnc2oc3c(N4CCOCC4)nc(Nc4cc(C5CCC5)n[nH]4)nc3c2c1 [Example 55, hydrochloride]  class 1
3  c1cnc2oc3c(N4CCOCC4)nc(Nc4ccncc4)nc3c2c1  class 0
4  c1cncc(Nc2nc(N3CCOCC3)c3oc4ncccc4c3n2)c1  class 1

Now, please, on to the next compound.
Does "c1ccc(CCNc2nc(N3CCOCC3)c3oc4ncccc4c3n2)cc1" have a reported pIC50 of at least 6? class 1
